- measured target: T1, rat NK1 receptor (rat, UniProt P14600 1-407)
- T1 construct: whole, on cells; Used as membrane preparations of transfected CHO cells; also called rNK1; rat neurokinin-1 receptor
- T1 sequence (P14600 whole entry): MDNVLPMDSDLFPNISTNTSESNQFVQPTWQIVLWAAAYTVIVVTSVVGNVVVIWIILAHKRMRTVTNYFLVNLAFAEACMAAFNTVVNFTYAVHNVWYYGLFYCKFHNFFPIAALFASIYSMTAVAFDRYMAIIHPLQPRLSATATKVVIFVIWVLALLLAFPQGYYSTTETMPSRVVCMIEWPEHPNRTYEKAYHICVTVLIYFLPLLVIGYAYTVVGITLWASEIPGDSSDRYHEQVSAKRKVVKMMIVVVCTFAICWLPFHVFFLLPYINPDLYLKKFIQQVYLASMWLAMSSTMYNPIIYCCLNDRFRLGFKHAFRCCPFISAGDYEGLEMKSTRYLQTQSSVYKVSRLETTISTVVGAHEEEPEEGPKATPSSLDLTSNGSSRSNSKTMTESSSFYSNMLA
- experimental details: radioligand competition vs [3H]substance P, membranes of rNK1 CHO cells
Bridge positions count the residues as written; N and C are the ends. Square brackets hold non-standard residues; d marks the D form. Ends that are not written are not given here. * marks the point of attachment. NHBn(CF3)2 = C-terminal amide NH-Bn(CF3)2, a benzyl group carrying two CF3; NMe‑Bn(CF3)2 = C-terminal N-methyl bis(trifluoromethyl)benzyl amide; NMeBn(CF3)2 = C-terminal N-methyl bis(trifluoromethyl)benzyl amide; Glc = O-glucosyl on Ser side chain (Ser(OGlu)/Ser(OGlc)); NH(3,5-(CF3)2-benzyl) = FC(F)(F)c1cc(CN*)cc(C(F)(F)F)c1; NMeBn(3,5-(CF3)2) = CN(Cc1cc(C(F)(F)F)cc(C(F)(F)F)c1)*; OBzl(3,5-(CF3)2) = FC(F)(F)c1cc(CO*)cc(C(F)(F)F)c1; NH‑Bn(CF3)2 = C-terminal Bn(CF3)2 amide; OBn(OMe)2 = C-terminal OBn(OMe)2 ester; Dmt = Cc1cc(O)cc(C)c1C[C@H](N)C(=O)O; NMe(benzyl) = CN(Cc1ccccc1)*; Nle = CCCC[C@H](N)C(=O)O; NHBn = c1ccc(CN*)cc1; OBn = c1ccc(CO*)cc1
Listed next: entries and their corresponding Ki.
metric: Ki (nM)

[
  {
    "binder": "Y[dA]GFPLW-{NMe(benzyl)} [TyrDAlaGlyPheProLeuTrpNMeBn (TY010)]",
    "meas value": 267
  },
  {
    "binder": "Y[dA]GFM-NH2 [TyrDAlaGlyPheMetNH2 (TY040)]",
    "meas value": 1100
  },
  {
    "binder": "Y[dA]GFFPLW-{NHBn(CF3)2} [TyrDAlaGlyPhePheProLeuTrpNHBn(CF3)2 (TY015)]",
    "meas value": 0.98
  },
  {
    "binder": "YXGFXPLW (D-Pen at 2 and 5 (X); disulfide 2-5 (cyclic); C-terminal NH-Bn(CF3)2 amide) [Tyr[DPenGlyPheDPen]ProLeuTrpNHBn(CF3)2 (TY049)]",
    "meas value": 4.54
  },
  {
    "binder": "Y[dA]GFPLW-OBn [TyrDAlaGlyPheProLeuTrpOBn (TY011)]",
    "meas value": 659
  },
  {
    "binder": "Y[dA]GFMPLW-OBn [TyrDAlaGlyPheMetProLeuTrpOBn (TY029)]",
    "meas value": 20.3
  },
  {
    "binder": "Y[dA]GF[Nle]PS(Glc)W-{NH‑Bn(CF3)2} [TyrDAlaGlyPheNleProSer(OGlu)TrpNHBn(CF3)2 (TY041)]",
    "meas value": 13.6
  },
  {
    "binder": "Y[dA]GFMPLW-{OBn(OMe)2} [TyrDAlaGlyPheMetProLeuTrpOBn(OMe)2 (TY030)]",
    "meas value": 9.53
  },
  {
    "binder": "Y[dA]GFMPLW-OH [TyrDAlaGlyPheMetProLeuTrpOH (TY043)]",
    "meas value": 9850
  },
  {
    "binder": "Y[dA]GFMPLW-{NMe(benzyl)} [TyrDAlaGlyPheMetProLeuTrpNMeBn (TY026)]",
    "meas value": 44.5
  },
  {
    "binder": "Y[dA]GFFPLW-{NMeBn(3,5-(CF3)2)} [TyrDAlaGlyPhePheProLeuTrpNMeBn(CF3)2 (TY017)]",
    "meas value": 0.57
  },
  {
    "binder": "Y[dA]GFFPLW-OBn [TyrDAlaGlyPhePheProLeuTrpOBn (TY014)]",
    "meas value": 124
  },
  {
    "binder": "Y[dA]GFLPLW-{OBzl(3,5-(CF3)2)} [TyrDAlaGlyPheLeuProLeuTrpOBn(CF3)2 (TY004)]",
    "meas value": 0.8
  },
  {
    "binder": "Y[dA]GFPLW-{NMe‑Bn(CF3)2} [TyrDAlaGlyPheProLeuTrpNMeBn(CF3)2 (TY013)]",
    "meas value": 6.05
  },
  {
    "binder": "Y[dA]GFMPLW-{NMeBn(CF3)2} [TyrDAlaGlyPheMetProLeuTrpNMeBn(CF3)2 (TY028)]",
    "meas value": 2.01
  },
  {
    "binder": "YAGFMPLW (D-Ala at 2; Met(O) (oxidized methionine) at 5; C-terminal O-3,5-Bn(CF3)2 ester) [TyrDAlaGlyPheMet(O)ProLeuTrpOBn(CF3)2 (TY023)]",
    "meas value": 0.2
  },
  {
    "binder": "Y[dC]GFCPLW-{NH(3,5-(CF3)2-benzyl)} (disulfide 2-5, also called [D-Cys2, Cys5]) [Tyr[DCysGlyPheCys]ProLeuTrpNHBn(CF3)2 (TY039)]",
    "meas value": 556
  },
  {
    "binder": "Y[dA]GF[dF]PLW-{OBzl(3,5-(CF3)2)} [TyrDAlaGlyPheDPheProLeuTrpOBn(CF3)2 (TY007)]",
    "meas value": 3
  },
  {
    "binder": "MPLW-{NHBn(CF3)2} [MetProLeuTrpNHBn(CF3)2 (TY051)]",
    "meas value": 62
  },
  {
    "binder": "Y[dA]GFMPLW-{OBzl(3,5-(CF3)2)} [TyrDAlaGlyPheMetProLeuTrpOBn(CF3)2 (TY005)]",
    "meas value": 0.29
  },
  {
    "binder": "Y[dA]GFMPLW-{NH(3,5-(CF3)2-benzyl)} [TyrDAlaGlyPheMetProLeuTrpNHBn(CF3)2 (TY027)]",
    "meas value": 7.27
  },
  {
    "binder": "Y[dA]GFFPLW-{OBzl(3,5-(CF3)2)} [TyrDAlaGlyPhePheProLeuTrpOBn(CF3)2 (TY003)]",
    "meas value": 0.88
  },
  {
    "binder": "[Dmt][dA]GFMPLW-{OBzl(3,5-(CF3)2)} [DmtDAlaGlyPheMetProLeuTrpOBn(CF3)2 (TY033)]",
    "meas value": 0.96
  },
  {
    "binder": "[Dmt][dA]GF[Nle]PS(Glc)W-{NH‑Bn(CF3)2} [DmtDAlaGlyPheNleProSer(OGlu)TrpNHBn(CF3)2 (TY056)]",
    "meas value": 10.1
  },
  {
    "binder": "Y[dC]GFMPLW-{OBzl(3,5-(CF3)2)} [TyrDCysGlyPheMetProLeuTrpOBn(CF3)2 (TY031)]",
    "meas value": 7.06
  },
  {
    "binder": "Y[dA]GF[Nle]PLS(Glc)W-{NH‑Bn(CF3)2} [TyrDAlaGlyPheNleProLeuSer(OGlu)TrpNHBn(CF3)2 (TY055)]",
    "meas value": 33.9
  },
  {
    "binder": "Y[dA]GFPLW-NHBn [TyrDAlaGlyPheProLeuTrpNHBn (TY008)]",
    "meas value": 803
  },
  {
    "binder": "Y[dA]GFGPLW-{OBzl(3,5-(CF3)2)} [TyrDAlaGlyPheGlyProLeuTrpOBn(CF3)2 (TY006)]",
    "meas value": 1
  }
]
